Where these numbers come from: patent US20240279232A1

# Test system: BZR (benzodiazepine site of GABAAR)
# experiment-summary: GABAAR/BZR binding, rat brain homogenate with 3H-flunitrazepam
# run-conditions: Percent inhibition at 10,000 nM; rat brain homogenate, 3H-flunitrazepam
Please enter T where BZR % is greater than or equal to 90%, and F where it is lower.

Given C[C@H]1N=C(c2ccccc2F)c2cc(Br)ccc2-n2cnc(C(=O)N(C)C)c21 , state whether its BZR % is at least 90%.
T

// inclusive: BZR % at least 90%? input: C#Cc1ccc2c(c1)C(c1ccccc1F)=N[C@@H](C)c1c(C(=O)NC)ncn1-2
T

Reported BZR % reaches at least 90% for C#Cc1ccc2c(c1)C(c1ccccn1)=NCc1c(C(=O)OC(C)C)ncn1-2 ?
T

Please indicate if the recorded BZR % for C[C@H]1N=C(c2ccccc2F)c2cc(Br)ccc2-n2cnc(-c3cnco3)c21 meets or exceeds 90%.
F

Can C#Cc1ccc2c(c1)C(c1ccccc1F)=N[C@@H](C)c1c(-c3nc(C)no3)ncn1-2 be said to have BZR % at or above 90%?
F

Would you say C#Cc1ccc2c(c1)C(c1ccccc1F)=N[C@H](C)c1c(C(=O)NCC)ncn1-2 shows BZR % at minimum 90%?
F

Does C#Cc1ccc2c(c1)C(c1ccccn1)=N[C@H](C)c1c(C(=O)NC)ncn1-2 have a reported BZR % of at least 90%?
F

API: above_or_equal(metric=BZR %, cutoff=90%) for item Cc1noc(-c2ncn3c2[C@@H](C)N=C(c2ccccc2F)c2cc(Br)ccc2-3)n1
T

* * *

# study-system: KOR (κ opioid receptor) (Homo sapiens, UniProt P41145)
# Construct: expressed in transfected cells; host or cells: HEK293 (stably transfected)
# Sequence (P41145 whole entry): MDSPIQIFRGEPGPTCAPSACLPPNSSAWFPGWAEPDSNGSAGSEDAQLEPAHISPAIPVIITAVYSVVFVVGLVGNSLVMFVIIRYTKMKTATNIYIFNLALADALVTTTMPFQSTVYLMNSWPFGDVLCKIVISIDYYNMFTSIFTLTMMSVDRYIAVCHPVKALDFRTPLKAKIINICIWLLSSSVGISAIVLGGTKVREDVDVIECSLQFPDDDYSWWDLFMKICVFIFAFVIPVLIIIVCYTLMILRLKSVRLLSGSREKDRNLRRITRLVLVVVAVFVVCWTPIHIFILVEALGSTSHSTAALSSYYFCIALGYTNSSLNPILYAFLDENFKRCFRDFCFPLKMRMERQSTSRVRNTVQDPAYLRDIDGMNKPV
# experiment-summary: KOR radioligand binding ([3H]-U69593, HEK293 cell homogenates)
# run-conditions: concentration-dependent, [3H]-U69593; read-out: KOR (Ki)
endpoint: Ki (nM)
Express it in nM; write the number only.

Look up Ki: Brc1ccc2c(c1)C(c1ccccn1)=NCc1c(-c3cnco3)ncn1-2
1960

// query Ki value for entry C#Cc1ccc2c(c1)C(c1ccccc1F)=N[C@H](C)c1c(C(=O)OC)ncn1-2
599

What measured Ki goes with C#Cc1ccc2c(c1)C(c1ccccc1F)=NCc1c(-c3cnco3)ncn1-2 [KRM-II-18B] ?
361

Would you kindly share the measured Ki for C#Cc1ccc2c(c1)C(c1ccccc1F)=N[C@@H](C)c1c(C(=O)OC(C)C)ncn1-2 ?
65

So what does the record say about Ki for C#Cc1ccc2c(c1)C(c1ccccc1F)=N[C@@H](C)c1c(C(=O)SCC)ncn1-2 ?
125

Given the compound C[C@H]1N=C(c2ccccc2F)c2cc(C3CC3)ccc2-n2cnc(C(=O)N(C)C)c21 , what is its reported Ki?
800

Quick one: Ki for C#Cc1ccc2c(c1)C(c1ccccc1F)=N[C@@H](C)c1c(C(=O)OCCC)ncn1-2 ?
64

So what's the measured Ki for this one? Fc1ccccc1C1=NCc2c(-c3cnco3)ncn2-c2ccc(Br)cc21
162

Reported Ki for C#Cc1ccc2c(c1)C(c1ccccc1F)=N[C@H](C)c1c(C(N)=O)ncn1-2 : what is it?
1530

# Ki lookup, item CCOC(=O)c1ncn2c1[C@@H](C)N=C(c1ccccn1)c1cc(Br)ccc1-2
401

Consider the compound shown here: C#Cc1ccc2c(c1)C(c1ccccc1F)=N[C@H](C)c1c(C(=O)OCC)ncn1-2 What is its recorded Ki?
240

# lookup: Ki of C#Cc1ccc2c(c1)C(c1ccccc1F)=N[C@H](C)c1c(C(=O)N(C)C)ncn1-2
1190

# lookup: Ki of C#Cc1ccc2c(c1)C(c1ccccc1F)=N[C@@H](C)c1c(C(=O)OC(C)(C)CC)ncn1-2
34

Which Ki reading was recorded for the compound C#Cc1ccc2c(c1)C(c1ccccc1F)=NCc1c(-c3ocnc3C)ncn1-2 ?
879

Recorded Ki of C#Cc1ccc2c(c1)C(c1ccccc1F)=N[C@@H](C)c1c(C(=O)NCC)ncn1-2 , please.
102

Which Ki value belongs to Brc1ccc2c(c1)C(c1ccccc1)=NCc1c(-c3cnco3)ncn1-2 ?
736

State the recorded Ki for this entry: C[C@H]1N=C(c2ccccc2F)c2cc(Br)ccc2-n2cnc(C(=O)N(C)C)c21
511

Consider the compound C#Cc1ccc2c(c1)C(c1ccccn1)=NCc1c(C(=O)OCC)ncn1-2 and give its measured Ki.
3820

Please give the measured Ki for this compound: C#Cc1ccc2c(c1)C(c1ccccc1F)=N[C@@H](C)c1c(C(=O)OC)ncn1-2
122

Give its Ki value. Item: C#Cc1ccc2c(c1)C(c1ccccc1F)=N[C@@H](C)c1c(C(=O)NC3CC3)ncn1-2
150

Which Ki is listed for C#Cc1ccc2c(c1)C(c1ccccc1F)=N[C@@H](C)c1c(C(=O)N(C)C)ncn1-2 ?
788

Quick one: Ki for C#Cc1ccc2c(c1)C(c1ccccc1F)=N[C@@H](C)c1c(C(=O)OCC)ncn1-2 ?
90

Please give the measured Ki for this compound: C#Cc1ccc2c(c1)C(c1ccccc1F)=N[C@H](C)c1c(C(=O)NC(C)C)ncn1-2
233

Query: Ki; subject: C#Cc1ccc2c(c1)C(c1ccccc1F)=N[C@@H](C)c1c(C(N)=O)ncn1-2
2780

I would be grateful if you could share the reported Ki for Cc1ncoc1-c1ncn2c1CN=C(c1ccccc1)c1cc(Br)ccc1-2 .
756

Could you tell me which Ki is on file for C#Cc1ccc2c(c1)C(c1ccccn1)=NCc1c(C(=O)OC(C)C)ncn1-2 ?
550

Entry C#Cc1ccc2c(c1)C(c1ccccc1F)=N[C@H](C)c1c(C(=O)N3CCCC3)ncn1-2 has what Ki?
371

Consider the compound shown here: C#Cc1ccc2c(c1)C(c1ccccc1F)=N[C@H](C)c1c(C(=O)NC)ncn1-2 What is its recorded Ki?
381

Bench note: what Ki did Cc1ncoc1-c1ncn2c1CN=C(c1ccccc1F)c1cc(Br)ccc1-2 show?
408

Fill blank: measured Ki of the compound C#Cc1ccc2c(c1)C(c1ccccc1F)=N[C@H](C)c1c(C(=O)NCC)ncn1-2 is ____.
194

So what's the measured Ki for this one? C#Cc1ccc2c(c1)C(c1ccccc1F)=N[C@@H](C)c1c(C(=O)OC3CC3)ncn1-2
68

// returns reported Ki for input C#Cc1ccc2c(c1)C(c1ccccc1F)=N[C@@H](C)c1c(C(=O)NC)ncn1-2
119

Give the measured Ki of C#Cc1ccc2c(c1)C(c1ccccc1F)=NC(C)c1c(C(=O)OC(C)(C)C)ncn1-2 (stereo not shown) .
27

Would you kindly share the measured Ki for C#Cc1ccc2c(c1)C(c1ccccc1F)=N[C@H](C)c1c(C(=O)NC3CC3)ncn1-2 ?
278

* * *

# study-system: KOR (κ opioid receptor) (Homo sapiens)
# Construct: expressed in transfected cells; host or cells: HEK293 (stably transfected)
# experiment-summary: KOR radioligand binding ([3H]-U69593, HEK293 cell homogenates)
# run-conditions: Percent inhibition at 10,000 nM; [3H]-U69593
Hi there, I'd appreciate the recorded inhibition at 10 µM for every entry that follows.

Recorded inhibition at 10 µM of C#Cc1ccc2c(c1)C(c1ccccc1F)=N[C@@H](C)c1c(-c3nc(CC)no3)ncn1-2 [GL-I-66] , please.
92%

Find the recorded inhibition at 10 µM belonging to C#Cc1ccc2c(c1)C(c1ccccc1F)=N[C@H](C)c1c(C(=O)N(C)C)ncn1-2 [GL-II-73] and report it.
58%

Bench note: what inhibition at 10 µM did C#Cc1ccc2c(c1)C(c1ccccc1F)=NCc1c(-c3ocnc3C)ncn1-2 [KRM-III-65] show?
64%

Tell me the measured inhibition at 10 µM of CCOC(=O)c1ncn2c1[C@H](C)N=C(c1ccccc1F)c1cc(C3CC3)ccc1-2 [GL-I-78] , please.
96%

Any idea what inhibition at 10 µM was measured for C#Cc1ccc2c(c1)C(c1ccccn1)=N[C@H](C)c1c(C(=O)OCC)ncn1-2 [GL-II-19] ?
44%

Which inhibition at 10 µM is reported for this compound? C#Cc1ccc2c(c1)C(c1ccccc1F)=N[C@H](C)c1c(C(=O)N3CCCC3)ncn1-2 [GL-II-76]
80%

Need inhibition at 10 µM, item C#Cc1ccc2c(c1)C(c1ccccc1F)=N[C@H](C)c1c(C(=O)OC)ncn1-2 [MP-III-004]
76%

Quick one: inhibition at 10 µM of C[C@H]1N=C(c2ccccc2F)c2cc(Br)ccc2-n2cnc(C(=O)N(C)C)c21 [GL-III-69] ?
75%

Given the compound CCOC(=O)c1ncn2c1[C@@H](C)N=C(c1ccccc1F)c1cc(Br)ccc1-2 [SH-I-047] , what is its reported inhibition at 10 µM?
82%

Query (compound): C#Cc1ccc2c(c1)C(c1ccccc1F)=N[C@H](C)c1c(C(=O)OCC)ncn1-2 [SH-053-2′F-R-CH3] ; field requested: inhibition at 10 µM
89%

Can you share its inhibition at 10 µM? I mean this compound: C#Cc1ccc2c(c1)C(c1ccccn1)=NCc1c(-c3cnco3)ncn1-2 [KRM-III-67]
48%

I have this compound here, CCOC(=O)c1ncn2c1[C@H](C)N=C(c1ccccc1F)c1cc(Br)ccc1-2 [SH-I-048B] , and I need its recorded inhibition at 10 µM.
95%

Returns the measured inhibition at 10 µM for the input compound. Input: C#Cc1ccc2c(c1)C(c1ccccc1F)=N[C@H](C)c1c(C(=O)NC)ncn1-2 [MP-III-022]
80%

Would you mind telling me what inhibition at 10 µM value was observed for Brc1ccc2c(c1)C(c1ccccc1)=NCc1c(-c3cnco3)ncn1-2 [KRM-II-73] ?
83%

Bench note: what inhibition at 10 µM did CCOC(=O)c1ncn2c1[C@@H](C)N=C(c1ccccn1)c1cc(Br)ccc1-2 [GL-II-06] show?
79%

Any idea what inhibition at 10 µM was measured for C#Cc1ccc2c(c1)C(c1ccccc1F)=N[C@@H](C)c1c(C(=O)OC3CC3)ncn1-2 [GL-I-38] ?
95%

Query: inhibition at 10 µM; subject: C#Cc1ccc2c(c1)C(c1ccccc1F)=N[C@@H](C)c1c(C(=O)NCC)ncn1-2 [GL-I-43]
95%
